Molecular target: SARS-CoV-2 NSP3 ADRP domain (SARS-CoV-2, UniProt P0DTD1 1023-1192)
Experiment: fluorescence polarisation
Details: both partners purified
recorded.endpoint: Kd (µM)
The figure you give is taken to be in µM; do not add the unit.

Identify measured Kd associated with GSTYLHPLSELLGIPL (FITC on the N-terminus) [FITC-labelled MBOAT1 peptide 16-31]
50.8
